Field: Lipid Concentration-induced 50% Peptide Binding (L/P), POPC Vesicle. Provide a value for each of the compounds that follow.
experiment: Tryptophan fluorescent binding assay; settings: tryptophan fluorescence; 50 µM peptide, lipid titrated 0-5000 µM; phosphate buffered saline 1X, pH 7.4; values as lipid per peptide
Peptide text beside a SMILES is read from it.
Please provide the amount together with its unit, number first.

What measured Lipid Concentration-induced 50% Peptide Binding (L/P), POPC Vesicle goes with CC(C)C[C@H](NC(=O)CN)C(=O)N[C@@H](CC(C)C)C(=O)N[C@@H](CCC(=O)O)C(=O)N[C@@H](CC(C)C)C(=O)N[C@@H](CC(C)C)C(=O)N[C@@H](Cc1c[nH]cn1)C(=O)N[C@@H](CC(C)C)C(=O)N[C@@H](CC(C)C)C(=O)N[C@@H](CC(C)C)C(=O)N[C@@H](Cc1c[nH]cn1)C(=O)N[C@@H](C)C(=O)N[C@@H](C)C(=O)NCC(=O)N[C@@H](Cc1c[nH]c2ccccc12)C(N)=O [EHH] (H-GLLELLHLLLHAAGW-NH2) ?
0.94 L/P

Another compound to check: CC(C)C[C@H](NC(=O)CN)C(=O)N[C@@H](CC(C)C)C(=O)N[C@@H](CCCCN)C(=O)N[C@@H](CC(C)C)C(=O)N[C@@H](CC(C)C)C(=O)N[C@@H](CCCCN)C(=O)N[C@@H](CC(C)C)C(=O)N[C@@H](CC(C)C)C(=O)N[C@@H](CC(C)C)C(=O)N[C@@H](CCCCN)C(=O)N[C@@H](C)C(=O)N[C@@H](C)C(=O)NCC(=O)N[C@@H](Cc1c[nH]c2ccccc12)C(N)=O [KKK] (H-GLLKLLKLLLKAAGW-NH2)
1.25 L/P

Another compound to check: CC(C)C[C@H](NC(=O)CN)C(=O)N[C@@H](CC(C)C)C(=O)N[C@@H](CCCCN)C(=O)N[C@@H](CC(C)C)C(=O)N[C@@H](CC(C)C)C(=O)N[C@@H](CCCCN)C(=O)N[C@@H](CC(C)C)C(=O)N[C@@H](CC(C)C)C(=O)N[C@@H](CC(C)C)C(=O)N[C@@H](Cc1c[nH]cn1)C(=O)N[C@@H](C)C(=O)N[C@@H](C)C(=O)NCC(=O)N[C@@H](Cc1c[nH]c2ccccc12)C(N)=O [KKH] (H-GLLKLLKLLLHAAGW-NH2)
0.83 L/P

Another compound to check: CC(C)C[C@H](NC(=O)CN)C(=O)N[C@@H](CC(C)C)C(=O)N[C@@H](CC(=O)O)C(=O)N[C@@H](CC(C)C)C(=O)N[C@@H](CC(C)C)C(=O)N[C@@H](CCCCN)C(=O)N[C@@H](CC(C)C)C(=O)N[C@@H](CC(C)C)C(=O)N[C@@H](CC(C)C)C(=O)N[C@@H](Cc1c[nH]cn1)C(=O)N[C@@H](C)C(=O)N[C@@H](C)C(=O)NCC(=O)N[C@@H](Cc1c[nH]c2ccccc12)C(N)=O [DKH] (H-GLLDLLKLLLHAAGW-NH2)
10.00 L/P

Another compound to check: CC(C)C[C@H](NC(=O)CN)C(=O)N[C@@H](CC(C)C)C(=O)N[C@@H](CCCCN)C(=O)N[C@@H](CC(C)C)C(=O)N[C@@H](CC(C)C)C(=O)N[C@@H](CCC(=O)O)C(=O)N[C@@H](CC(C)C)C(=O)N[C@@H](CC(C)C)C(=O)N[C@@H](CC(C)C)C(=O)N[C@@H](Cc1c[nH]cn1)C(=O)N[C@@H](C)C(=O)N[C@@H](C)C(=O)NCC(=O)N[C@@H](Cc1c[nH]c2ccccc12)C(N)=O [KEH] (H-GLLKLLELLLHAAGW-NH2)
1.00 L/P

FYI, the data here is from paper PMC9069370.
